- Test system: MILI (PIWIL2) piRISC loaded with L1MC piRNA (26 nt);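 note: 1 nM active piRISC with 0.1 nM target library at 33 °C single turnover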
- protocolNotes: pre-steady-state target cleavage rate (min^-1); guide: L1MC piRNA 5'p-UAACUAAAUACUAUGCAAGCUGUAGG; higher = faster piRNA-guided slicing of the target
- conditionLabel: auxiliary factor: none (no GTSF1)
measurementName: pre-steady-state target cleavage rate

As a guide, the following entries are already answered.
{"biopolymerSequence": "UCCUGGAUGUGCUUGCUUACUAUUUAGUUA", "pre-steady-state target cleavage rate": 0.00477}
{"biopolymerSequence": "UCCUGGUACAGCUUGCAUAGUAUUUAAUUA", "pre-steady-state target cleavage rate": 0.00528}
{"biopolymerSequence": "UCCUCCUUCUGCUUGCAUAGUAUUUAGUUA", "pre-steady-state target cleavage rate": 0.00966}
{"biopolymerSequence": "UCCUGGAUCAGCUUGGAUAGUAUUUAGUAA", "pre-steady-state target cleavage rate": 0.00324}
{"biopolymerSequence": "UCCUGGAUGUGCUUGCAUAGUACUUAGUUA", "pre-steady-state target cleavage rate": 0.00413}
{"biopolymerSequence": "UCCUGGAUCAGCUUGCAUAGUACUUUAGUUA", "pre-steady-state target cleavage rate": 0.00672}

Prompt: Entry UCCUCCUACAGCUUGCAUAGUAUAAUGUUA : reported pre-steady-state target cleavage rate = ?
Completion: 0.00294

Prompt: Item: UCCUGGAUGUCGAAGCAUGUAUUUAGUUA
Completion: < 0.0001

Prompt: Could you do the same for UCCUGGAUGUCGUUGCGUAGUAUUUAGUUA , please?
Completion: 0.00779

Prompt: What about this sequence? UCCUGCUACAGCUUGCAUAGUAUUUAGUCA
Completion: 0.00397

Prompt: Let us now turn to UCCUGGAAGAGCUUGCAUAGUAUUUUGUUA
Completion: 0.00584

Prompt: Now consider UCCUGGAACUGCUUGCAUUGUAUUUAGUUA and answer again.
Completion: 0.00842

Prompt: Would you kindly repeat that for UCCUGGAUGACCUUGCUUAGUAUUUAGUUA ?
Completion: 0.00599

====

- Tested on: MILI (PIWIL2) piRISC loaded with piRNA #1 (26 nt);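 note: 1 nM active piRISC with 0.1 nM target library at 33 °C single turnover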
- protocolNotes: pre-steady-state target cleavage rate (min^-1); guide: piRNA #1 5'p-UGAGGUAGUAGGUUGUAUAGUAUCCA; higher = faster piRNA-guided slicing of the target
- conditionLabel: auxiliary factor: 500 nM mouse GTSF1
Binary call on pre-steady-state target cleavage rate: MET from 0.1 upward, NOT MET beneath that.

{"biopolymerSequence": "GGAGUGCAUACUAUACAACCUACAACCUCA", "assaySystem": "MILI (PIWIL2) piRISC loaded with piRNA #1 (26 nt)", "classAssignment": "NOT MET"}
{"biopolymerSequence": "GGAGACCUAUCUAUACUACCUAGUACCUCA", "assaySystem": "MILI (PIWIL2) piRISC loaded with piRNA #1 (26 nt)", "classAssignment": "NOT MET"}
{"biopolymerSequence": "GGAGAGGAUACUAUACAACCACUACCUCA", "assaySystem": "MILI (PIWIL2) piRISC loaded with piRNA #1 (26 nt)", "classAssignment": "NOT MET"}

Prompt: Say whether GGAGACGAUACUUUACAACCUACUACCACA shows pre-steady-state target cleavage rate of 0.1 or more.
Completion: MET

Prompt: Same question, GGAGUGGAUACUAUACAACCUACUUGGUCA this time
Completion: NOT MET

Prompt: Field entry: GGAGACCAUUCUAUACAACCUACUACCUCA
Completion: MET

Prompt: Same read-out for GGAGAGGAUUCUAUACAACCUACUACGUCA ?
Completion: NOT MET

====

// pre-steady-state target cleavage rate lookup, one value per entry
- System: MILI (PIWIL2) piRISC loaded with piRNA #1 (26 nt);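 note: 1 nM active piRISC with 0.1 nM target library at 33 °C single turnover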
- protocolNotes: pre-steady-state target cleavage rate (min^-1); guide: piRNA #1 5'p-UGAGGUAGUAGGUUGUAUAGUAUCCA; higher = faster piRNA-guided slicing of the target
- conditionLabel: auxiliary factor: 500 nM mouse GTSF1

{"biopolymerSequence": "GGAGACCUAACUAUUCAACCUACUACGUCA", "measurementName": "pre-steady-state target cleavage rate", "result": 0.0338}
{"biopolymerSequence": "GGAGAGGAUACUAUACCAACCUACUACCUCA", "measurementName": "pre-steady-state target cleavage rate", "result": 0.0443}

Prompt: What measured pre-steady-state target cleavage rate goes with GGAGACGAUACUAAACAACCUACAACCUCA ?
Completion: 0.116

Prompt: What do we get for GGAGACCUAUGAAUACAAGCUACUACCUGA ?
Completion: 0.017

Prompt: Param item: GGAGACCUUAGUAUACAACCUACUACCUCA
Completion: 0.0889

Prompt: Query GGAGACCUACCUAUACAACCUACUACCUCA next
Completion: 0.117

Prompt: Input GGAGACGAUACUAUUCAACCUACUACCACA
Completion: 0.161

====

- System: MILI (PIWIL2) piRISC loaded with L1MC piRNA (26 nt);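 note: 1 nM active piRISC with 0.1 nM target library at 33 °C single turnover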
- protocolNotes: pre-steady-state target cleavage rate (min^-1); guide: L1MC piRNA 5'p-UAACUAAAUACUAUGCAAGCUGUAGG; higher = faster piRNA-guided slicing of the target
- conditionLabel: auxiliary factor: none (no GTSF1)
If the reported pre-steady-state target cleavage rate equals or exceeds 0.006, assign t. If not, assign f.

A selection of reference data follows.
{"biopolymerSequence": "UCCUGGAUGUCCUUGCUUAGUAUUUAGUUA", "classAssignment": "f"}
{"biopolymerSequence": "UCCUCCCACAGCUUGCAUAGUAUUUAGUUA", "classAssignment": "t"}
{"biopolymerSequence": "UCCUCCUACAGCUGUGCAUAGUAUUUAGUUA", "classAssignment": "t"}
{"biopolymerSequence": "UCCUGGUAGAGCUUGGAUAGUAUUUAGUUA", "classAssignment": "t"}
{"biopolymerSequence": "UCCUGGAUCAGCUUCGUUAGUAUUUAGUUA", "classAssignment": "f"}

Shift focus to the following entry.
Prompt: Does pre-steady-state target cleavage rate meet or surpass 0.006 for UCCUGGAUGUCGUUUGCAUAGUAUUUAGUUA ?
Completion: t

====

- System: EfPiwi piRISC loaded with L1MC piRNA (26 nt)
- protocolNotes: pre-steady-state target cleavage rate (min^-1); auxiliary factor: 500 nM Ephydatia muelleri Gtsf1; guide: L1MC piRNA 5'p-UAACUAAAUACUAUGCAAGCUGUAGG; higher = faster piRNA-guided slicing of the target
Measured pre-steady-state target cleavage rate, listed per entry for reference.
Please give only the number in your answer, with no unit.

{"biopolymerSequence": "UCCUGGAUGAGCUAGCAUAGUAUUUAGUAA", "resultNumber": 0.00419}
{"biopolymerSequence": "UCCUGCUACAGGCUUGCAUAGUAUUUAGUUA", "resultNumber": 0.00977}
{"biopolymerSequence": "UCCUGGUACAGCUUGCAUAGUAUAAUGUUA", "resultNumber": 0.00312}

Prompt: For the sequence shown here, UCCUGGAUGAUGCUUGCAUAGUAUUUAGUUA , give the reported pre-steady-state target cleavage rate.
Completion: 0.0738

Prompt: Would you kindly repeat that for UCCUGGAACAGCUUGCUUAGUAUAUAGUUA ?
Completion: 0.0104

====

- Tested on: EfPiwi piRISC loaded with L1MC piRNA (26 nt)
- protocolNotes: pre-steady-state target cleavage rate (min^-1); auxiliary factor: 500 nM Ephydatia muelleri Gtsf1; guide: L1MC piRNA 5'p-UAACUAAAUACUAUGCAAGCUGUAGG; MIWI and MILI are mouse PIWI proteins and EfPiwi is from a freshwater sponge; tags in brackets are library labels; higher = faster piRNA-guided slicing of the target
measurementName: pre-steady-state target cleavage rate
Reply with the value as a number alone.

Worked examples, 6 sequences total:
{"biopolymerSequence": "UCCUGGAUCAGCUUGCAUAGUAAUUAGUUA", "assaySystem": "EfPiwi piRISC loaded with L1MC piRNA (26 nt)", "pre-steady-state target cleavage rate": 0.0264}
{"biopolymerSequence": "UCCUGGUACAGCUUGCAUAGUAAUUUGUUA", "assaySystem": "EfPiwi piRISC loaded with L1MC piRNA (26 nt)", "pre-steady-state target cleavage rate": 0.00282}
{"biopolymerSequence": "UCCUGGAACAGCUUGCAUAGUAUUUUCUUA", "assaySystem": "EfPiwi piRISC loaded with L1MC piRNA (26 nt)", "pre-steady-state target cleavage rate": 0.00388}
{"biopolymerSequence": "UCCUCCUAGAGCUUCCAUAGUAUUUAGUUA", "assaySystem": "EfPiwi piRISC loaded with L1MC piRNA (26 nt)", "pre-steady-state target cleavage rate": 0.00302}
{"biopolymerSequence": "UCCUCCUACAGCUUGCAUAGUAUUUUGUUA", "assaySystem": "EfPiwi piRISC loaded with L1MC piRNA (26 nt)", "pre-steady-state target cleavage rate": 0.00791}
{"biopolymerSequence": "UCCUGCUAGAGCUAGCAUAGUAUUUAGUUA", "assaySystem": "EfPiwi piRISC loaded with L1MC piRNA (26 nt)", "pre-steady-state target cleavage rate": 0.00618}

Let's switch to this sequence now.
Prompt: Recorded pre-steady-state target cleavage rate of UCCUCCUACAGCUUGCAUAGUAUAUAGAAA , please.
Completion: 0.00329
